The measurements presented in this section are drawn from patent US10973832B2.

- System name: UniProt P11229
- Sequence (P11229 whole entry): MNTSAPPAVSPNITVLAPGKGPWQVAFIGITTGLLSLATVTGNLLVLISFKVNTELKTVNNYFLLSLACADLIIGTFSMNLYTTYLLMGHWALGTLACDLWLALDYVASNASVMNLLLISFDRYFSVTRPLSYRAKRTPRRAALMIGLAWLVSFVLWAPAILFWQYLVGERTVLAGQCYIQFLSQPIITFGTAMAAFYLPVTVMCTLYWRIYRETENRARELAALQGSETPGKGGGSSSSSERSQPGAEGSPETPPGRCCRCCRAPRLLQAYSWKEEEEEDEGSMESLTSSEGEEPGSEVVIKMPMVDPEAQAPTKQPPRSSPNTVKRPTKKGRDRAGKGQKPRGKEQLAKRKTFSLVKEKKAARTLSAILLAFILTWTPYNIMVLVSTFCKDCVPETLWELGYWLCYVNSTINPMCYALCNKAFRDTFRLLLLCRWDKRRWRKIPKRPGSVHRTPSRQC
- Procedure text: Phospho-ERK1/2 assay, muscarinic M1
- Format: cell-based
- Test settings: CHO cells expressing human M1; phospho-ERK1/2 Alphascreen; read-out: pEC50 M1 (converted)
- Experimental: Functional assays were performed using the Alphascreen Surefire phospho-ERK1/2 assay (Crouch & Osmond, Comb. Chem. High Throughput Screen, 2008). […] Plates were incubated for 2 h with gentle agitation in the dark and then read on a PHERAstar plate reader. pEC50 and Emax figures were calculated from the resulting data for each receptor subtype.
Quantity kind: EC50 (µM)
Give a bare numeral; the unit µM is implied.

Req: Please give the measured EC50 for this molecule: CCOC(=O)N1CCCC(N2CCC(C(=O)NCC(C)CC)CC2)CC1 (centres unmarked)
Resp: 0.151

Req: Reported EC50 for CC#CCOC(=O)N1CCCC(N2CCC(OC)(C(=O)NC3(C)CCC3)CC2)CC1 (centres unmarked) : what is it?
Resp: 0.0372

Req: Given CCOC(=O)N1CCCC(N2CCC(F)(C(=O)NC3(C)CCCC3)CC2)CC1 (centres unmarked) , state its recorded EC50.
Resp: 0.0617

Req: Find the recorded EC50 belonging to CCOC(=O)N1CCCC(N2CCC(C(=O)NCC3CCC3)CC2)CC1 (centres unmarked) and report it.
Resp: 0.0603

Req: Param item = CCOC(=O)N1CCCC(N2CCC(F)(C(=O)NC3CCCC3)CC2)CC1 (centres unmarked) ; retrieve measured EC50.
Resp: 0.0513
